Test system: SL1 RNA
Assay: RNA-detected NMR binding site mapping (2D-1H,1H-TOCSY and 1D-1H)
Set-up: species or system SARS-CoV-2
Conditions: 2D TOCSY; RNA 150 μM, compound 1 mM, 298 K
recorded_endpoint: 1H,1H CSPs [ppm] U10H5-H6 (ppm)

>  <compound>
CNC(=O)Nc1nc2c(OC)cc(OC)cc2s1 [A.11]

>  <assay_target>
SL1 RNA

>  <unit_label>
ppm

>  <quantitative_readout>
0.0072

$$$$
>  <compound>
CNC(=O)Nc1nc2c(O)cc(O)cc2s1 [A.13]

>  <assay_target>
SL1 RNA

>  <unit_label>
ppm

>  <quantitative_readout>
0.0112

$$$$
>  <compound>
COc1ccc2nc(NC(=O)CN3CCC[C@H](N)C3)sc2c1 [A.36]

>  <assay_target>
SL1 RNA

>  <unit_label>
ppm

>  <quantitative_readout>
0.0089

$$$$
>  <compound>
CNC(=N)Nc1nc2ccc(OC)cc2s1 [A.4]

>  <assay_target>
SL1 RNA

>  <unit_label>
ppm

>  <quantitative_readout>
0.0146

$$$$
>  <compound>
COc1ccc(-c2nnc(NC(=O)CN(C)C)s2)cc1OC [A.31]

>  <assay_target>
SL1 RNA

>  <unit_label>
ppm

>  <quantitative_readout>
0.0112

$$$$
>  <compound>
COc1ccc2nc(NC(=O)CN(C)C)sc2c1 [A.2]

>  <assay_target>
SL1 RNA

>  <unit_label>
ppm

>  <quantitative_readout>
0.0231

$$$$
>  <compound>
CNC(=O)Nc1nc2ccc(OC)cc2s1 [A]

>  <assay_target>
SL1 RNA

>  <unit_label>
ppm

>  <quantitative_readout>
0.0179

$$$$
>  <compound>
CC(=O)c1ccc(NC(=O)CN2CCCC2)cc1 [B]

>  <assay_target>
SL1 RNA

>  <unit_label>
ppm

>  <quantitative_readout>
0.0122

$$$$
